# Test protocol: yeast display, Sf9 membrane polyspecificity reagent, FACS + sequencing; frameworks hold sequencing errors
Parameter: polyreactivity (PSR sort gate)

- Biopolymer sequence: "QVQLVESGGRLVQAGGSLRLSCAASGITFYDYAMGWYRQAPGKERELVAAITWNGGDTYYADSVKGRFTISRDNAKNTVYLQMHSLKPEDTAVYYCNATRHYFGGFHYEYYYWGQGTQVTVSS"
  Assay result: "low polyreactivity"
- Biopolymer sequence: "QVQLVESGGGLVQAGGSLRLSCAASGRTFFLYAMGWYRQAPGKEREFVATISYGGGSTYYADSVKGRFTISRDNAKNTVYLQMNSLKPDDTAVYYCNALNTSQYAEGTSDYDGNMGYWGQGTQVTVSS"
  Assay result: "low polyreactivity"
- Biopolymer sequence: "QVQLVESGGGLVQAGGSLRLSCDASGSTFSDYAMGWYRQAPGKERELVAAISDSGSGTYYADSVKGRFTISRDNAKNTVYLQMNSLKPEDTAVYYCNTDPRFAMDWGQGTQVTVSS"
  Assay result: "low polyreactivity"
- Biopolymer sequence: "QVQFVESGGGLVQAGGSLRLSCAASGSIFALYAMGWYRQAPGKERELVAAISYRGGRTYYADSVKGRFTISRDNAKNTVYLQMNSLKPEDTAVYYCATDFPGKFDYWGQGTQVTVSS"
  Assay result: "low polyreactivity"
- Biopolymer sequence: "QVQLVESGGGLVQAGGSLRLSCAASGITFSYYALGWYRQAPGKERELVAVISAGGGTTYYADSVKGRFTISRDNAKNTVYLQMNSLKPEDTAVYYCAVKIVVWWGEYDYWGQGTQVTVSS"
  Assay result: "high polyreactivity"

Provide the reported polyreactivity (PSR sort gate) of each entry below, same order.
1. QVQLVESGRGLVQAGGSLRLSCAASGIIFTYNAMGWYRQAPGKERELVAAISAGGGSTYYADSVKGRFTISRDNAKNTVYLQMNSLKPEDTAVYYCAAARRYATQFHYDSWGQGTQVTVSS
2. QVQLVESGGGLVQAGGSLRLSCAASGSTFLDNAMGWYIQAPGKERELVAAITQSGSSTYYPDSVKGRFTISRDTAKNTVYLQMNSLKPEATAVYYCAADVPNISFDYWGQGTQVTVSS
3. QVQLVESGGGLVQAGGSLRLSCAASGRIFHRYVMGWYRQAPGKERELVAAISSGTGSTYYADSVKGRFTISRDTAKNTVYLLMNSLIPEDTAVYYCNAAPGYTSVTYDYWGQGTQVTVSS
4. QVQLVESGGGLVQAGGSLRLSCAASGLIFRGNAMGWYRQAPGKERELVAGITRGGSTYYADSVKGRFTISRDNAKNTVYLQMNSLKPEDTAVYYCAAAFRDGFTRRYGYWGQGTQVTVSS
5. QVQLVESGGGLVQAGGSLRLSCAASGNTFTAYAMGWYRQAPGKERELVAAISSSGRTNYADSVKGRFTISRDNAKNTVYLQMNSLKPEDTAVYYCAAYRLSKPFYKYDYWGEGTQVTVSS
6. QVQLVESAGGLVQAGGSLRLSCAASGSTFYRYAMGWYRQAPGKERELVAAISTRGGSTYYADSVKGRFTISRDNAKNTVYLQMNSLKPEDTAVYYCAAKSGSPDDYDYWGQGTQVTVSS

Result:
["high polyreactivity", "low polyreactivity", "high polyreactivity", "high polyreactivity", "high polyreactivity", "high polyreactivity"]
